- System: MS2 coat protein
- experiment-description: apparent KD of MS2 coat protein; designed switch direction (-1 OFF switch, 1 ON switch): 1; higher = weaker reporter binding
- condition-set: input ligand: FMN 200 uM
Assign classes using reported apparent KD of MS2 coat protein values and the ranges lower bin = under 20 nM, middle bin = from 20 nM up to 90 nM, upper bin = 90 nM and over, please.

Class for GAGUAGUUGAAAGGAUAUAGAUUGUUGUAGGAUCUAGAAGGUUCUAACAUGAGGAUCACCCAUGUAGGACUAUUCCUGUGUAUC [Parity 87 - Jieux - Same State NG 1] (Eterna round: R96, puzzle: Same State NG 1) ?
lower bin

Class for GCAUGGUUACAUGCUAUACAUGAGGAUCACCCAUGUGAUGGGAAGGAUAUGUCCUCAAUUAGUGGACAGAAGGUCCAAACAUUU [Fiskers NG3ss - 1] (Eterna round: R96, puzzle: Same State NG 3) ?
upper bin

Class for GUAGCAUACCGAGGAUAUUCUACAUGAGGAUCACCCAUGUUUAAUAGGCCACAUUAGUGGCCUUGGGAGAAGGCGGAAUGCUAC [Xeonanis - 20 Mod47] (Eterna round: R96, puzzle: Same State NG 2) ?
lower bin

Class for GAGUGACGAUUAGGAUAUACAGUGAUAAUGAUAGUAGAAGGAAUUGACAUGAGGAUCACCCAUGUAGGACUAAUCCAGAGAGAG [Parity 29 - Jieux - Same State NG 1] (Eterna round: R96, puzzle: Same State NG 1) ?
middle bin

Class for UUAUCUCUUACAUGAGGAUCACCCAUGUUUUUAUGUCUUAGACAGGAUAUAGUAGUCUCGUAUUACUAGAAGGGUCUUUUUAUU [JR_SSNG3_Sub020] (Eterna round: R96, puzzle: Same State NG 3) ?
lower bin

Class for UUAUUAUUUACAUGAGGAUCACCCAUGUUUUUAUGUCAGAGACAGGAUAUAGAAGUCUCGUUUUACUAGAAGGGUCUUUUUAUU [JR_SSNG3_Sub016] (Eterna round: R96, puzzle: Same State NG 3) ?
middle bin

Class for UAUUAGAUCCGAGGAUAUCCUUAUUACAAACAUGAGGAUCACCCAUGUAAAGGGAAUGAGUUGUAGGAGAAGGCGGAUUUAGUU [JR_SSNG2_Sub057] (Eterna round: R96, puzzle: Same State NG 2) ?
middle bin

Class for GCUCGAUGAUAGGCCUACAUGAGGAUCACCCAUGUAAGUGGGCAGGAUAUCUAAAUGCAGAAUGUAGAGAAGGGCCCGUCGAGC [SameState NG3 #54] (Eterna round: R96, puzzle: Same State NG 3) ?
upper bin

Class for CCAUAGUACAAUUUAGAUCUACAUGAGGAUCACCCAUGUACUGAGGAUAUCAGCUCGUUUAGAGCUGAGAAGGCAGAAGUACUU [SSNG3/6-A3] (Eterna round: R96, puzzle: Same State NG 3) ?
middle bin

###

- Tested on: K4 kissing-loop RNA reporter;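 note: bound reporter read as fluorescence of individual clusters on recovered sequencing chips by microscopy, with normalized cluster intensities fitted with a binding model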
- experiment-description: apparent KD of K4 kissing-loop reporter; higher = weaker reporter binding
- condition-set: Eterna round: R107; input ligand: theophylline 20 uM
Classification field: 1 = apparent KD of K4 kissing-loop reporter at or over 200 nM; -1 = apparent KD of K4 kissing-loop reporter under 200 nM.

hey, is apparent KD of K4 kissing-loop reporter for this one >= 200 nM? AGUGAUAUAUGAGGAUAUGGGUUUGUUAAUGAGUUUGUUUUAGUGUUGUUUGGUUAGUGAUGUUAUUUAGAAGGCGUGAGUGAUG [vxxexmullin]
-1

hey, is apparent KD of K4 kissing-loop reporter for this one >= 200 nM? AAAACUAUCAGAAGGAGCGUGGAAUAUUCAUCUAUAUUUAAUACGAGUGAUGUUCGUAAUUCACAGGUAGGUCGCUGAUCAAUAA [JR_ExcArginiB_Sub007]
1

hey, is apparent KD of K4 kissing-loop reporter for this one >= 200 nM? AGUACAAUGGCGGCCGCCACUCAACGCAGAUCAAAGAUCUGCAUUCACUCAGUGAUGUUGAGUGAGAGGACCGGGCCUUUGUACA [Omei KL Tryp B SS B v1]
1

hey, is apparent KD of K4 kissing-loop reporter for this one >= 200 nM? UUAGAGAUCUCAGGAUAUGAGUGAUGUUGGUGUCAAGAUCUGAGAUAGAAUUCUAUCUCAGAUCAAUCAGAAGGGAGAUCUCAUU [AK2.2 Exc FMN B]
1

hey, is apparent KD of K4 kissing-loop reporter for this one >= 200 nM? GGCCAAAGAGAGUGAUGUUCUCAAUAUGAAGGAGCGCCCGAAAGGGCAGGUAGGUCGCAUAACGGCCACCUACGAAAAGUAGGAA [#SwitchBubble 4 #K4Early]
-1

hey, is apparent KD of K4 kissing-loop reporter for this one >= 200 nM? UGAUAGGACAGAAGGAGCGGGAGUGAUGUUCCCAAUAAAAGGUCUAGCAAAGCUAGACCCUCCCAGGUAGGUCGCUGUCCUAUCU [ArgBX 2 #Palindromic #SwitchBubble #StaticStem]
1

hey, is apparent KD of K4 kissing-loop reporter for this one >= 200 nM? CUGCCGUGCCAUGGGCCAGUGAUGUUGGAACGAGGACCGGUACGGCCGCCACUCGCUUAGCGUCAAAGGCGUCCCGAAUAGAAAG [theeternabot_exclusion_KL_Trp_A_14]
1

hey, is apparent KD of K4 kissing-loop reporter for this one >= 200 nM? AACCACUCGUUACAUCACUAUCGAGUGGAACGAGGACCGGUACGGCCGCCACUCGAUAACUUGCAGUGAUGUUGCAAGUAAGAAU [(T)''-(K)'-(T)'-(T1)-(T2)-(K1)-(K2)_Design9]
1

hey, is apparent KD of K4 kissing-loop reporter for this one >= 200 nM? UGCUGUCAAUAAGAUACCAGUUGGACUGAGUGAUGUUCAUCCAUUAUAUCUAUUCUGCUUAACCCUUGGCAGCUUGAUGACGUUU [theeternabot_exclusion_KL_Theo_B_6]
-1

hey, is apparent KD of K4 kissing-loop reporter for this one >= 200 nM? UUCAUCGUGGUUCACGGGUGGUAUGAAACGCGAGGACCGGUACGGCCGCCACUCGGUUCCGCUUGUUGAGUGAUGUUCAAUAUUU
1

hey, is apparent KD of K4 kissing-loop reporter for this one >= 200 nM? AUAUGCUUAGCGGCCGCCACUCCAAUUGGCCGAAAGGCCUGAUACCGAGUGAUGUUCGGUUGGAGGAGGACCGGGCUAGGCGUAU [#2 Exclusion - Tryptophan B Attempt #1 (HarryS)]
-1

hey, is apparent KD of K4 kissing-loop reporter for this one >= 200 nM? UAUGAAGGUGGAGGAUAUUGAUUGAAUCUUGGUCAGGAGUGAUGUUCCGGGAAGCCUUGGAUUCAUCGAGAAGGCCAAGGAUAGU [Extra 3]
1

hey, is apparent KD of K4 kissing-loop reporter for this one >= 200 nM? UCUAAGGUCGAACCGGUAUGAUCACCGGAUACCAGAGGCGAAAGCCUCCCUUGGCAGCCGAGUGUAGUGAUGUUACACGGGUUCU
1

hey, is apparent KD of K4 kissing-loop reporter for this one >= 200 nM? UGGAGUUGACGAAAAGUCAACUCCUGAGAAGGAGCGGACGAAAGUCCAGGUAGGUCGCUCACUACCAGUGAUGUUGGUACUAAAA
-1

hey, is apparent KD of K4 kissing-loop reporter for this one >= 200 nM? UGUUAUGUAUCAGGAUAUUAGUGAUGUUUGUUUAUGUUAGUGAUGUUGAUAUUUGUUUUAUGUAUUUAAGAAGGGAUUGAGAAGU [ffcfxmullin]
-1

hey, is apparent KD of K4 kissing-loop reporter for this one >= 200 nM? UGACGUUUGGGAAGGAGCGGAAUGUAAUACGGAACGCGUGGAGAUGCAGUGAUGUUGCAGAUCCAGGUAGGUCGCCCAAGGGACG [Zainat]
-1

hey, is apparent KD of K4 kissing-loop reporter for this one >= 200 nM? GGUAGCAUGGCGGCCGCCACUCUUCAUUAGUGAUGUUAAUGCCGAGUGCGCUAACUCCAACUGGAGAGGACCGGGCCAUGCUACC
1

hey, is apparent KD of K4 kissing-loop reporter for this one >= 200 nM? GAUAUAGUGAUGUUAUAUGGGAAGGAGUUACGAGGACCGGUACGGCCGCCACUCGAAACGAGUGAGGAUUUGGGAGAUUGGGUUU [SSTryptA.R]
1

hey, is apparent KD of K4 kissing-loop reporter for this one >= 200 nM? UGGAUAUAGUGAUGUUAUAUAGAGAUAGAUACCAGUUAAGAGAAUAGCCCUUGGCAGCUGAAAGAAGUAUCAUUAGAGAAGAAUG [ExTheophyl.Ab]
-1

hey, is apparent KD of K4 kissing-loop reporter for this one >= 200 nM? UAUGUCAUUCUCGACGGAGUGAUGUUCCGACGAGGACCGGUACGGCCGCCACUCGGCAGAAUUGAGUCUGUGAUCCUAGAUCAAU [theeternabot_exclusion_KL_Trp_A_44]
-1

hey, is apparent KD of K4 kissing-loop reporter for this one >= 200 nM? UUUCUACCGGGAAGGAGCGUGAAUGAUAAUGGAUAUAGUGAUGUUAUAUAUACGAACGAAUCGCAGGUAGGUCGCCCGGAUGACU [SSArgB.T]
1

hey, is apparent KD of K4 kissing-loop reporter for this one >= 200 nM? AAUCCUAACGGAGUGAUGUUCCGUAGCGAUACCAGCCAUUGCGAUGGCCCUUGGCAGCGCUAUAAGCAUUGCUAGUAAGGGCCAA [Theo A Ex t7]
-1

Cited source: the supplement of paper PMC9170038
